- System: Plasmodium falciparum
- protocol: Antimalarial activity against chloroquine-sensitive Plasmodium falciparum NF54 infected in human erythrocytes incubated for 48 hrs by [3H]hypoxanthine incorporation assay
- Type: functional, organism-based
endpoint-label: IC50 (nM)

                                   compound  reported
0  C[C@@H]1CC[C@H]2[C@@H](C)C(c3cccn3C)O[C@@H]3O[C@@]4(C)CC[C@@H]1[C@]32OO4 (stereo partly specified)       4.6

* * *

- protocol: in vitro
- run-parameters: monkey
The compounds listed here are annotated with their selectivity ratio.
endpoint-label: selectivity ratio

>>> print(df.to_string())
                                   compound     endpoint_label  reported_relation  reported
0  COc1cc(NC(C)CCCN)c2ncccc2c1 (stereo unspecified)  selectivity ratio                  =       239
1  COc1cc(NC(C)CCCn2c(-c3ccc(F)cc3)c(-c3ccccc3)c(C(=O)Nc3ccccc3)c2C(C)C)c2ncccc2c1 (stereo unspecified)  selectivity ratio                  >      1110
2  CC(C)c1c(C(=O)Nc2ccccc2)c(-c2ccccc2)c(-c2ccc(F)cc2)n1CCCCNc1ccnc2cc(Cl)ccc12  selectivity ratio                  =       468
3  CC(C)c1c(C(=O)Nc2ccccc2)c(-c2ccccc2)c(-c2ccc(F)cc2)n1CCNc1ccnc2cc(Cl)ccc12  selectivity ratio                  >      1680
4  CC(C)c1c(C(=O)Nc2ccccc2)c(-c2ccccc2)c(-c2ccc(F)cc2)n1CCCNc1ccnc2cc(Cl)ccc12  selectivity ratio                  =       210
5  CCCCn1c(-c2ccc(F)cc2)c(-c2ccccc2)c(C(=O)Nc2ccccc2)c1C(C)C  selectivity ratio                  >       345
